Biological target: TDP-43 (Homo sapiens, UniProt Q13148 1-414)
Sequence (Q13148 whole entry): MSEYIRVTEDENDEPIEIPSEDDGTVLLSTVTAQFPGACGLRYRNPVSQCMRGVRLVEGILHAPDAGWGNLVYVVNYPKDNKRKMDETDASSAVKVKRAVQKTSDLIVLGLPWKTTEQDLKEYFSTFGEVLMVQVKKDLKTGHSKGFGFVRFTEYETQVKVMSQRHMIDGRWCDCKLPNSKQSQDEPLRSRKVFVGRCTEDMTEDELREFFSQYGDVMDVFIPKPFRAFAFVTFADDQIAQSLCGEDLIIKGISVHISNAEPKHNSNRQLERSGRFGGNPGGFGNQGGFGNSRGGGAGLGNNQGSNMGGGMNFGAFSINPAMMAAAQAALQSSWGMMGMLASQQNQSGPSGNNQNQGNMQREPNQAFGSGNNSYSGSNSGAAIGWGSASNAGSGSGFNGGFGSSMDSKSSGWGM
Test: RNA Bind-n-Seq with designed 260-mer pool; 25 mM Tris-HCl, 150 mM KCl, 3 mM MgCl2, BSA (printed 500 mg/mL), 20 units/mL SUPERase IN; pH not stated; 500 nM RNA pool, 1 h, 4 C; TDP-43 5, 50, 500 nM; high values mean tight binding
Settings: protein: recombinant; tags: SBP (GST cleaved off with PreScission; pGEX-GST-SBP)
Over roughly 9,900 sequences, “r (bound/input frequency ratio)” has its median near 0.7; the highest 2% begin near 6.5. The sample as a whole holds a higher share of the highest values than the screen did.
Assign binding signal to each entry below.

Qu. Look up binding signal for this binder: ENSMUSG00000029028.207|Lrrc47 (ssRNA) RNA: GGGAGUUCUACAGUCCGACGAUCGCUUCGAUAUCCGCAUGCUAGUCCUAAGGACCCAGCAGCUGCACAGAGGACUUGGUGGCCCCGUGCCUUGCCAUCUGGCUGAGAAGAGAACCAGACCCUCAGCCUUCCCCCUCGACACCUUCUCGUUGGUGACCUCUGACCUUAAAGGACCAUUUCUACCUUCUGUAAAAGAACACCUGUUUGGGGUUGCGUGCGGCUUUCAUCCUAAGGCCGUGCGAGAGCCGUUAGCUGUCAGAACUAGUGAAGCUCCAGGCUCCUCGUGGCAGACCCUGGACAACGCCUCUUGCGGUCGCACUAGUGUGGAAUUCUCGGGUGUCAAGG
Ans. 0.453 R (bound/input frequency ratio)

Qu. Need binding signal of ENSMUSG00000031028.199|Tub (ssRNA) RNA: GGGAGUUCUACAGUCCGACGAUCGCUUCGAUAUCCGCAUGCUAACCUGCUAGGGUCUAUUCUGCAUGUCCUUUCUCUUCCCAGUUCCAGAGAUGAAACCCCUCCGAGUUAAUGUAUAAGGUUGGAAACCUUUCAGUAGGGAAUCAGGCAGUUCCCUGUUGAAAGUUGUCUGAGUUUUUGCACACCAUUCUGAUCUGAUGUGGCCUGUGCCUGGCUCCUCUAUGAGGACUUCGAGCUGUGCACAGACCUUAGCAGGACCACUGCACACUUUGUGUCUGUGUGACAGGCAGCCCAAGGGUUCUGGCUCUUGCGGUCGCACUAGUGUGGAAUUCUCGGGUGUCAAGG , thanks.
Ans. 1.55 R (bound/input frequency ratio)

Qu. I have this binder here, ENSMUSG00000061578.1096|Ksr2 (ssRNA) RNA: GGGAGUUCUACAGUCCGACGAUCGCUUCGAUAUCCGCAUGCUAAGAAGGCUGGGGGAGCUUUCAGGGGUGUGGCCAGUUAUGUACAGAUGUGAAGCUGAGGUCUGAAGGAAAUGGAGGAAGUAGGAAGAUCAGACUGGUUGAAUUAGAAGUCUGUCACUCUAGGUGCUAAGUGACCUUGGACCCAGUCAGUUCUUGGAUUUCUGUUGUAGCCCAGGCUAGCCUCGAACCCUUGAUCCUCCUGUUCCUGGUAGAGAAACAGCCACUAAAUGGUGGGAUAGAAUGUGACUGCUCUAUCCCCGAUCCUCUUGCGGUCGCACUAGUGUGGAAUUCUCGGGUGUCAAGG , and I need its recorded binding signal.
Ans. 2.29 R (bound/input frequency ratio)

Qu. Need binding signal of ENSMUSG00000058297.28|Spock2 (ssRNA) RNA: GGGAGUUCUACAGUCCGACGAUCGCUUCGAUAUCCGCAUGCUACCUGGACAACAGCAGGCAACUUAGCAAAUGGAUCCGGAAGUCAGUGCGGAGGACCCUGGCUCCAGUGGGGGAGGACUGGGGAGUGUGGCUUGUGUGUAUGUGUGAUAUGAGAUGUGUGUGUAUGAUGUGAGAUGUGAGUGUGUGAUGUGAGAUGUGUGUAUGUGAGAUGUGUGUGUGUGUGUGUGUGUGUGUGAUGUGAGUCACCCAAAGGUCCCUAUGUUAUUGAUUUUCAAAUGCACACUUUCACACACAAGGAUACACUCUUGCGGUCGCACUAGUGUGGAAUUCUCGGGUGUCAAGG , thanks.
Ans. 6.8 R (bound/input frequency ratio)

Qu. If you can, please state the reported binding signal value of ENSMUSG00000058297.29|Spock2 (ssRNA) RNA: GGGAGUUCUACAGUCCGACGAUCGCUUCGAUAUCCGCAUGCUACAACAGCAGGCAACUUAGCAAAUGGAUCCGGAAGUCAGUGCGGAGGACCCUGGCUCCAGUGGGGGAGGACUGGGGAGUGUGGCUUGUGUGUAUGUGUGAUAUGAGAUGUGUGUGUAUGAUGUGAGAUGUGAGUGUGUGAUGUGAGAUGUGUGUAUGUGAGAUGUGUGUGUGUGUGUGUGUGUGUGUGAUGUGAGUCACCCAAAGGUCCCUAUGUUAUUGAUUUUCAAAUGCACACUUUCACACACAAGGAUACACUAACACUCUUGCGGUCGCACUAGUGUGGAAUUCUCGGGUGUCAAGG .
Ans. 6.82 R (bound/input frequency ratio)

Qu. Please give the measured binding signal for this binder: ENSMUSG00000061578.285|Ksr2 (ssRNA) RNA: GGGAGUUCUACAGUCCGACGAUCGCUUCGAUAUCCGCAUGCUAGGAUAUAUCUCUGUGGCCAGGGCUGGACUGAGACUGACCCCCUCCUACUAAGCAUCUUAGAGUUUCUCUUUUCUCUUUAAUUGCAUCAGGACCCCUUUGGUCCAUGUACCCCGGUCUCUGUCACAUGCCUUUGUAUCUUGGAGGAAGUAAGAGAGGAGAGAGCCAGGGAGGGCUGAAGCUCUGGGACCCUGAAGUGUCCCCCGGGAACUGGGACUCACUCAUCUUCUCCUGUUUGUAGCUCAAUGACCCAGUGGGUCACACUCUUGCGGUCGCACUAGUGUGGAAUUCUCGGGUGUCAAGG
Ans. 0.368 R (bound/input frequency ratio)

Qu. Consider the binder ENSMUSG00000058297.28|Spock2|83:87;91:104;113:124;138:144;153:162;168:193 (ssRNA) RNA: GGGAGUUCUACAGUCCGACGAUCGCUUCGAUAUCCGCAUGCUACCUGGACAACAGCAGGCAACUUAGCAAAUGGAUCCGGAAGUCAGUGCGGAGGACCCUGGCUCCAGUGGGGGAGGACUGGGGACACACGCUACACACAUACACACAUAUGAGAACACACACAUACAUGUGAGAUGUGACACACACAUGUGAGAACACACAUACUGAGAACACACACACACACACACACACACACAUGUGAGUCACCCAAAGGUCCCUAUGUUAUUGAUUUUCAAAUGCACACUUUCACACACAAGGAUACACUCUUGCGGUCGCACUAGUGUGGAAUUCUCGGGUGUCAAGG and give its measured binding signal.
Ans. 3.52 R (bound/input frequency ratio)

Origin of the recorded values: paper PMC12864922
